Source listed as patent US6339098B1.

Biological target: human PR (hPR-B) (Homo sapiens, UniProt P06401)
Sequence (P06401 1-933): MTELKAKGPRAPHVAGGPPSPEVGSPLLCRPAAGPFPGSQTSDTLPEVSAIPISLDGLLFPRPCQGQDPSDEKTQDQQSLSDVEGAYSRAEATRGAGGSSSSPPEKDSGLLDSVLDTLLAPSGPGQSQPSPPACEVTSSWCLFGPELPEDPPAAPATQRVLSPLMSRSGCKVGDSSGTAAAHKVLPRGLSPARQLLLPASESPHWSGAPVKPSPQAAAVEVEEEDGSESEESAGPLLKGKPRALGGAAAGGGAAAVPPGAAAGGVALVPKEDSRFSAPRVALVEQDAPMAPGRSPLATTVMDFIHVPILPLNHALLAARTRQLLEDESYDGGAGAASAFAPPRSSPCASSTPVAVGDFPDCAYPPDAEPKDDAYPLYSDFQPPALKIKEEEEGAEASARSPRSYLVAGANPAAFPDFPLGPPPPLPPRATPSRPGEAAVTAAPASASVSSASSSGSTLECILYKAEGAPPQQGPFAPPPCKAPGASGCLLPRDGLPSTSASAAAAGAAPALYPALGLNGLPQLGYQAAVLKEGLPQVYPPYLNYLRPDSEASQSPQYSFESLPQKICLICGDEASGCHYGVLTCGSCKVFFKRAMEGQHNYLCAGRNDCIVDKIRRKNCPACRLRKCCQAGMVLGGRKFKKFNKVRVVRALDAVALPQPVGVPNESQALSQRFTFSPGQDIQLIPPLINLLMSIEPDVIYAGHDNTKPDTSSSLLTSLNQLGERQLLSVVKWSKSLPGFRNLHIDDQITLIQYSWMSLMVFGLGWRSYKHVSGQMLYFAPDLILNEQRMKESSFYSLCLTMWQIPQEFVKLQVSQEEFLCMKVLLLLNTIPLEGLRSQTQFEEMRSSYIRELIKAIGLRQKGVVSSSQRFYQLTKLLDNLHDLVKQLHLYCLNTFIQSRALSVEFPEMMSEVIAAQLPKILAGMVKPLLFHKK
Assay: PRE-luciferase reporter activity in CV-1 cells co-transfected with human PR and PRE-luciferase plasmids (antiprogestational activity)
Settings: CV-1 cells co-transfected with hPR-B and PRE-luciferase; in the presence of 3 nM progesterone; 24 h treatment; read-out: IC50 (concentration giving half-maximal decrease in 3 nM progesterone induced PRE-luciferase activity)
reported_metric: IC50 (nM)
Answer in nM, number only, no unit symbol.

Item: `O=S1(=O)Nc2ccc(-c3cccc(Cl)c3)cc2C12CCCCC2` | IC50: 900
